- assay: Pediatric phase 1 trial: plasma pharmacokinetics after first dose
- Set-up: species or system human
- conditions: human, in vivo, 12 mg/m2, Cmax

# item.smiles, Cmax
data = [
    ("Cc1ccc(C(=O)N(CCCN)[C@@H](c2nc3cc(Cl)ccc3c(=O)n2Cc2ccccc2)C(C)C)cc1", "149 ng/mL"),
]

----------
- assay: Pediatric phase 1 trial: plasma pharmacokinetics after first dose
- Set-up: species or system human
- conditions: human, in vivo, 5 mg/m2, t1/2
test.readout: half-life (h)

# item.smiles, measured.result
measured = [
    ("Cc1ccc(C(=O)N(CCCN)[C@@H](c2nc3cc(Cl)ccc3c(=O)n2Cc2ccccc2)C(C)C)cc1", 9),
]

Where do the numbers come from? From paper PMC3053384.
